Target or system Orexin/Hypocretin receptor type 1 (Homo sapiens); metric pKi; compiled from varied reports.
pKi: −log10 of the molar value.
quantity: pKi

Record excerpt, results attached:
> print(dat)
                                   compound  result
1  Cc1cc(C)cc(-c2cnc(-c3cccnc3)c(C(=O)N(C)Cc3ccc4nccnc4c3)c2)c1    5.14
2  Cc1ccc(-n2nccn2)c(C(=O)N2CC3CC(C2)N(c2ncc4ccccc4n2)C3)c1 (single isomer, unassigned; enantiomer A)    6.96
3  Cc1ccc(-n2nccn2)c(C(=O)N2C[C@@H]3CC[C@H]2CN(c2ncc4ccc(F)cc4n2)C3)c1 (single isomer, unassigned)    8.70
4  COc1cc(F)c(CN2C(=O)N(c3ccc(OC)c(OC)c3)S(=O)(=O)c3ccccc32)c(Cl)c1    9.40
5  COc1c(F)cccc1C(=O)N1C[C@@H](C)CC[C@H]1CNc1ccc(Br)cn1    8.70
6  O=C(Nc1ccccc1-c1ccccc1)[C@@H]1CCCN1C(=O)CCc1nc2ccccc2[nH]1    7.40

1. Cc1cccc(O[C@@H]2CC[C@@H](C)N(C(=O)c3ccccc3-n3nccn3)C2)n1
2. CC1(C)OC[C@H](NC(=O)Nc2ccc(Br)cc2)[C@H](c2ccccc2)O1
Input line: Select one. Lower pKi: 1 or 2 Answer = label.
Output line: 2

A. Cc1ccc(-n2nccn2)c(C(=O)N2CCCC(Oc3ccc(F)c(C)c3)C2)c1 (centres undefined)
B. Cc1ccc(-n2nccn2)c(C(=O)N2CCC3CCC(C2)N3c2ncc3ccc(F)cc3n2)c1 (racemic)
Input line: Please indicate which entry, A or B , has the lower recorded pKi value. Lab log: write the label of the selected item as the result.
Output line: A
(A: 6.97, B: 9.05)

1. Cc1ccc(-n2nccn2)c(C(=O)N2C[C@H](CCc3ccc(F)cn3)CC[C@H]2C)c1
2. Cn1c(SCC(=O)N2CCC[C@H]2C(=O)Nc2ccccc2-n2cccc2)nc2ccccc21
Input line: Between 1 and 2 , whose measured pKi reads higher? Choose, then provide that item's label.
Output line: 2
(2: 8.05, 1: 6.33)
